target: PD-L1 antigen (ELISA of Example 2) (human, UniProt Q9NZQ7 19-239, limits assumed); test: ELISA, signal on PD-L1 antigen
Sequence (Q9NZQ7 19-239 limits assumed): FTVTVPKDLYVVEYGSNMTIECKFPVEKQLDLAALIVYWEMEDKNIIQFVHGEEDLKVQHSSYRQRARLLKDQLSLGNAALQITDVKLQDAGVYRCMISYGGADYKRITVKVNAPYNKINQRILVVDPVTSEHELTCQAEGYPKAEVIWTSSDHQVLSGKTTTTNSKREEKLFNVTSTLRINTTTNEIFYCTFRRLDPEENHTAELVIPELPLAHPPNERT
ASSAY_METRIC: ELISA

These solved cases illustrate the format of a correct answer.
For this binder ( 2LIG16 (VHH, PD-L1 VHH) VHH: QVQLQESGGGLVQPGGSLRLSCAASGFTFDDYGMSWVRQAPGKGLEWVSAIRWNGGSTNYADSVKGRFTISRDNAKNTLYLQMNSLKSEDTAVYYCAQGYYCSGYGCPRGQGTQVTVSS ), measured ELISA is 3.02

Entry 2LIG127 (VHH, PD-L1 VHH) VHH: QVQLQESGGGLVQPGGSLRLSCAASGFNLDPYAIGWFRQAPGKEREEVSCISSGDGSKYYADSVKGRFTMSRDNAKKTVYLQMNSLKPEDTAVYYCATDGYYYCSDYPHPLYWGQGTQVTVSS , ELISA reported as 3.73

Item: 2LIG139 (VHH, PD-L1 VHH) VHH: QVQLQESGGGLVQPGGSLRLSCAVSGFNLDPYAIAWFRQAPGKEREEVSCISSSDVGTYYADSVKGRFTISRDNAKKTVYLQMNSLKPEDTAVYYCATDGYYYCSDYPHPLYWGQGTQVTVSS | ELISA: 4

Value of measured ELISA for the entry 3LIG29 (VHH, PD-L1 VHH) VHH: QVQLQESGGGLVQAGGSMRLSCAASGFTFSSYGMSWVRQTPGKGPEWVSAIDSGGGSTSYADSVKGRFTISRDNAKNTLYLQMNSLKPEDTAVYYCAQGYYCSGYGCSDYWGQGTQVTVSS : 3.96

The recorded ELISA for entry 2LIG48 (VHH, PD-L1 VHH) VHH: QVQLQESGGGLVQPGGSLRLSCAASGFTFNDYAMSWVRQAPGKGLEWVSGIRSNGGYTNYADSVKGRFTISRDNAKNTLYLQMNSLKSEDTAVYYCAQGYYCSGYGCYPGQGTQVTVSS equals 4

P = 3LIG18 (VHH, PD-L1 VHH) VHH: QVQLQESGGGLVQPGGSLRLSCAASGFNLDPYAIAWFRQAPGKEREEVSCISSSDVGTYYADSVKGRFTISRDNAKKTVYLQMNSLKPEDTAVYYCATDGYYYCSDYPHPLYWGQGTQVTVSS
Q = 2LIG22 (VHH, PD-L1 VHH) VHH: QVQLQESGGGLVQPGGSLRLSCAASGFTLDYYAINWFRQAPGKEREEVSCISSSDGSTYYADSVKGRFTISRDNAKNTVYLQMNSLKPEDTAVYYCATSGWRLCRPTDEYDYSYWGQGTQVTVSS
R = 2LIG3 (VHH, PD-L1 VHH) VHH: QVQLQESGGGLVQAGGSLRLSCTASGTIFSINHMDWFRQAPGKQRELVALITSDGFPTYADSAKGRFTISRDNTKKTVSLQMNSLKPEDTAVYYCHVSSGVYNYWGQGTQVTVSS
Hello, I need these entries ordered by ELISA, highest reading first. Thanks! List labels; respect the requested ordering.
P, R, Q

// data source = patent US20250361305A1
